Method Summary: Total AUC in dog at 4.75 mg/kg
Type: ADME, organism-based, Canis lupus familiaris
Parameters: dose 4.75 mg/kg, time AUCmax
Assay Setup: in vivo
Measurement Name: AUC (µM·h)
Give bare numbers, in µM·h.

Asked: Please give the measured AUC for this molecule: "CN1CCN(c2cccc3c2CCN(C(=O)/C=C/c2c(-n4cnnn4)ccc(Cl)c2F)[C@@H]3C(=O)Nc2ccc(C(=O)O)cc2)C(=O)C1"
Given back: 7.76

----------
Method Summary: Chemical stability of the compound in Tris buffer at pH 8 at 50 degC after 90 days by HPLC method
Assay type: physicochemical
Assay Setup: read-out: Stability
Measurement Name: remaining at […] (%)
Give bare numbers, in %.

Asked: Please give the measured remaining at […] for this compound: "CN1CCN(c2cccc3c2CCN(C(=O)/C=C/c2c(-n4cnnn4)ccc(Cl)c2F)[C@@H]3C(=O)Nc2ccc(C(=O)O)cc2)C(=O)C1"
Given back: 94

----------
Method Summary: Chemical stability of the compound in phosphate buffer at pH 6.5 at 25 degC after 90 days by HPLC method
Format: physicochemical
Assay Setup: read-out: Stability
Measurement Name: remaining at […] (%)
Give bare numbers, in %.

Asked: Please give the measured remaining at […] for this compound: "CN1CCN(c2cccc3c2CCN(C(=O)/C=C/c2c(-n4cnnn4)ccc(Cl)c2F)[C@@H]3C(=O)Nc2ccc(C(=O)O)cc2)C(=O)C1"
Given back: 99.9

----------
Method Summary: Chemical stability of the compound in phosphate buffer at pH 7.4 at 25 degC after 90 days by HPLC method
Assay type: physicochemical
Assay Setup: read-out: Stability
Measurement Name: remaining at […] (%)
Numbers only, in %.

Asked: Please give the measured remaining at […] for this compound: "CN1CCN(c2cccc3c2CCN(C(=O)/C=C/c2c(-n4cnnn4)ccc(Cl)c2F)[C@@H]3C(=O)Nc2ccc(C(=O)O)cc2)C(=O)C1"
Given back: 100

----------
Method Summary: Half life in rat at 0.5 mg/kg
Type: ADME, organism-based
Assay Setup: in vivo
Measurement Name: half-life (min)
Answers are plain numbers, in min.

Asked: Please give the measured half-life for this molecule: CN1CCN(c2cccc3c2CCN(C(=O)/C=C/c2c(-n4cnnn4)ccc(Cl)c2F)[C@@H]3C(=O)Nc2ccc(C(=O)O)cc2)C(=O)C1 [BMS-962212]
Given back: 13.2

----------
Method Summary: in vitro
Assay Setup: rat, liver microsomes
Measurement Name: half-life (min)
Give bare numbers, in min.

Asked: Please give the measured half-life for this compound: "CN1CCN(c2cccc3c2CCN(C(=O)/C=C/c2c(-n4cnnn4)ccc(Cl)c2F)[C@@H]3C(=O)Nc2ccc(C(=O)O)cc2)C(=O)C1"
Given back: 59

----------
Method Summary: Acid dissociation constant, pKa of the compound
Type: physicochemical
Measurement Name: pKa
Numbers only.

Asked: Please give the measured pKa for this molecule: "CN1CCN(c2cccc3c2CCN(C(=O)/C=C/c2c(-n4cnnn4)ccc(Cl)c2F)[C@@H]3C(=O)Nc2ccc(C(=O)O)cc2)C(=O)C1"
Given back: 4.1

----------
Method Summary: Chemical stability of the compound in phosphate buffer at pH 6.5 at 37 degC after 90 days by HPLC method
Format: physicochemical
Assay Setup: read-out: Stability
Measurement Name: remaining at […] (%)
Give bare numbers, in %.

Asked: Please give the measured remaining at […] for this molecule: "CN1CCN(c2cccc3c2CCN(C(=O)/C=C/c2c(-n4cnnn4)ccc(Cl)c2F)[C@@H]3C(=O)Nc2ccc(C(=O)O)cc2)C(=O)C1"
Given back: 99.8

----------
Method Summary: Solubility of the compound in Tris buffer at pH 8
Type: physicochemical
Measurement Name: solubility (mg/mL)
Give bare numbers, in mg/mL.

Asked: Please give the measured solubility for this compound: "CN1CCN(c2cccc3c2CCN(C(=O)/C=C/c2c(-n4cnnn4)ccc(Cl)c2F)[C@@H]3C(=O)Nc2ccc(C(=O)O)cc2)C(=O)C1"
Given back: 11

----------
Method Summary: Clearance in cynomolgus monkey at 2.03 mg/kg
Format: ADME, organism-based, Macaca fascicularis
Assay Setup: in vivo
Measurement Name: clearance
# do not omit the unit; it follows the number

Asked: Please give the measured clearance for this compound: "CN1CCN(c2cccc3c2CCN(C(=O)/C=C/c2c(-n4cnnn4)ccc(Cl)c2F)[C@@H]3C(=O)Nc2ccc(C(=O)O)cc2)C(=O)C1"
Given back: 31 mL/min/kg

----------
Method Summary: Clearance in dog at 4.75 mg/kg
Type: ADME, organism-based, Canis lupus familiaris
Assay Setup: in vivo
Measurement Name: clearance (mL/min/kg)
Numbers only, in mL/min/kg.

Asked: Please give the measured clearance for this compound: "CN1CCN(c2cccc3c2CCN(C(=O)/C=C/c2c(-n4cnnn4)ccc(Cl)c2F)[C@@H]3C(=O)Nc2ccc(C(=O)O)cc2)C(=O)C1"
Given back: 15

----------
Method Summary: Volume of distribution at steady state in dog at 4.75 mg/kg
Format: ADME, organism-based, Canis lupus familiaris
Assay Setup: in vivo, read-out: Vdss
Measurement Name: Vd (L/kg)
One number for each entry, in L/kg.

Asked: Please give the measured Vd for this compound: "CN1CCN(c2cccc3c2CCN(C(=O)/C=C/c2c(-n4cnnn4)ccc(Cl)c2F)[C@@H]3C(=O)Nc2ccc(C(=O)O)cc2)C(=O)C1"
Given back: 1.02

----------
Method Summary: in vivo
Assay Setup: rat, iv
Measurement Name: Vd (L/kg)
Numbers only, in L/kg.

Asked: Please give the measured Vd for this compound: "CN1CCN(c2cccc3c2CCN(C(=O)/C=C/c2c(-n4cnnn4)ccc(Cl)c2F)[C@@H]3C(=O)Nc2ccc(C(=O)O)cc2)C(=O)C1"
Given back: 0.75

----------
Method Summary: Total AUC in rat at 0.5 mg/kg
Assay type: ADME, organism-based
Design: dose 0.5 mg/kg, time AUCmax
Assay Setup: in vivo
Measurement Name: AUC (µM·h)
One number for each entry, in µM·h.

Asked: Please give the measured AUC for this molecule: CN1CCN(c2cccc3c2CCN(C(=O)/C=C/c2c(-n4cnnn4)ccc(Cl)c2F)[C@@H]3C(=O)Nc2ccc(C(=O)O)cc2)C(=O)C1 [BMS-962212]
Given back: 0.441

----------
Method Summary: Volume of distribution at steady state in rat at 0.5 mg/kg
Type: ADME, organism-based
Assay Setup: in vivo, read-out: Vdss
Measurement Name: Vd (L/kg)
Numbers only, in L/kg.

Asked: Please give the measured Vd for this compound: "CN1CCN(c2cccc3c2CCN(C(=O)/C=C/c2c(-n4cnnn4)ccc(Cl)c2F)[C@@H]3C(=O)Nc2ccc(C(=O)O)cc2)C(=O)C1"
Given back: 0.32

----------
Method Summary: Solubility of the compound in phosphate buffer at pH 7.4
Assay type: physicochemical
Measurement Name: solubility (µg/mL)
Answers are plain numbers, in µg/mL.

Asked: Please give the measured solubility for this molecule: "CN1CCN(c2cccc3c2CCN(C(=O)/C=C/c2c(-n4cnnn4)ccc(Cl)c2F)[C@@H]3C(=O)Nc2ccc(C(=O)O)cc2)C(=O)C1"
Given back: 1500

----------
Method Summary: Aqueous solubility of the compound at pH 6.7
Assay type: physicochemical
Assay Setup: aqueous medium
Measurement Name: solubility (µg/mL)
One number for each entry, in µg/mL.

Asked: Please give the measured solubility for this compound: "CN1CCN(c2cccc3c2CCN(C(=O)/C=C/c2c(-n4cnnn4)ccc(Cl)c2F)[C@@H]3C(=O)Nc2ccc(C(=O)O)cc2)C(=O)C1"
Given back: 260

----------
Method Summary: in vivo
Assay Setup: rat, iv
Measurement Name: half-life (min)
Numbers only, in min.

Asked: Please give the measured half-life for this compound: "CN1CCN(c2cccc3c2CCN(C(=O)/C=C/c2c(-n4cnnn4)ccc(Cl)c2F)[C@@H]3C(=O)Nc2ccc(C(=O)O)cc2)C(=O)C1"
Given back: 52.8

----------
Method Summary: Lipophilicity, log D of the compound by HPLC method
Assay type: physicochemical
Measurement Name: logD
One number for each entry.

Asked: Please give the measured logD for this compound: CN1CCN(c2cccc3c2CCN(C(=O)/C=C/c2c(-n4cnnn4)ccc(Cl)c2F)[C@@H]3C(=O)Nc2ccc(C(=O)O)cc2)C(=O)C1 [BMS-962212]
Given back: 1.4

----------
Method Summary: in vivo
Assay Setup: rat, iv
Measurement Name: clearance (mL/min/kg)
One number for each entry, in mL/min/kg.

Asked: Please give the measured clearance for this compound: CN1CCN(c2cccc3c2CCN(C(=O)/C=C/c2c(-n4cnnn4)ccc(Cl)c2F)[C@@H]3C(=O)Nc2ccc(C(=O)O)cc2)C(=O)C1 [BMS-962212]
Given back: 16

----------
Method Summary: Chemical stability of the compound in phosphate buffer at pH 7.4 at 50 degC after 90 days by HPLC method
Format: physicochemical
Assay Setup: read-out: Stability
Measurement Name: remaining at […] (%)
Give bare numbers, in %.

Asked: Please give the measured remaining at […] for this molecule: CN1CCN(c2cccc3c2CCN(C(=O)/C=C/c2c(-n4cnnn4)ccc(Cl)c2F)[C@@H]3C(=O)Nc2ccc(C(=O)O)cc2)C(=O)C1 [BMS-962212]
Given back: 94.6
